- System: TGFβ/SMAD Signaling Pathway SBE reporter cell line
- assay-explanation: TGFb reporter assay in HEK293 SBE-LUC reporter cells (luciferase)
- Assay type: cell-based
- settings: Homo sapiens, key of the table says IC50, read-out: EC50 (the source's name)
Would you kindly list IC50 for each of these compounds?

(Q) Entry "Cc1cccc(-c2nc(CN[C@@H]3c4ccccc4C[C@H]3O)[nH]c2-c2ccc3ncnn3c2)n1" : reported IC50 = ?
(A) 10 to 100 nM

(Q) Now the same for "Cc1cccc(-c2nc(CNCc3ccccc3Cl)[nH]c2-c2ccn3ncnc3c2)n1"
(A) 0.1 to 10 nM

(Q) Similarly, "Cc1cccc(-c2nc(CNCc3cccc(-c4ccccc4)c3)[nH]c2-c2ccc3ncnn3c2)n1" ?
(A) 100 to 1000 nM

(Q) Also "Cc1cccc(-c2nc(CNCCc3c(F)cccc3F)[nH]c2-c2ccc3nccnc3c2)n1" , if possible.
(A) 0.1 to 10 nM

(Q) Cc1cccc(-c2nc(CNC3CCCOC3)[nH]c2-c2ccc3ncnn3c2)n1 (centres unmarked) ?
(A) 10 to 100 nM

(Q) Same thing, different compound: "Cc1cccc(-c2nc(CN[C@@H](CO)c3ccccc3)[nH]c2-c2ccc3ncnn3c2)n1"
(A) 10 to 100 nM

(Q) Please give the result for "Cc1cccc(-c2nc(CNCc3cccc(Oc4ccncc4)c3)[nH]c2-c2ccc3ncnn3c2)n1" too.
(A) 10 to 100 nM

(Q) Can you check Cc1cccc(-c2nc(CNc3ccc4c(c3)CC(N)C4)[nH]c2-c2ccc3ncnn3c2)n1 (centres unmarked) next?
(A) 100 to 1000 nM

###

Give pIC50 for every item shown.
- Test system: TGFβ/SMAD Signaling Pathway SBE reporter cell line
- assay-explanation: TGFb reporter assay in HEK293 SBE-LUC reporter cells (luciferase)
- Type: cell-based
- settings: Homo sapiens, key of the table says IC50, read-out: EC50 (the source's name)
pIC50: −log10 of the molar value.

(Q) # pIC50 lookup, item "Cc1cccc(-c2nc(CNCc3cccc(C)c3C)[nH]c2-c2ccc3ncnn3c2)n1"
(A) 8.00 to 10.00

(Q) Please answer likewise for "Cc1cccc(-c2nc(CNCc3ccccc3-c3cccc(CN)c3)[nH]c2-c2ccc3ncnn3c2)n1"
(A) 6.00 to 7.00

(Q) Again, but for "Cc1cccc(-c2nc(CNCc3cccc(Oc4ccccc4)c3)[nH]c2-c2ccc3ncnn3c2)n1"
(A) 7.00 to 8.00

(Q) Entry "Cc1cccc(-c2nc(CNCCN(C)c3ccccc3)[nH]c2-c2ccc3ncnn3c2)n1" please
(A) 8.00 to 10.00

(Q) # repeat for "Cc1cccc(-c2nc(CNCc3ccccc3-c3ccccc3F)[nH]c2-c2ccc3ncnn3c2)n1"
(A) 8.00 to 10.00

(Q) Then this compound: Cc1cccc(-c2nc(C3CCNC3)[nH]c2-c2ccc3ncnn3c2)n1 (centres unmarked)
(A) 6.00 to 7.00

(Q) Please answer likewise for "Cc1cccc(-c2nc(CNCc3ccccc3-c3ccccc3CNC(=O)OC(C)(C)C)[nH]c2-c2ccc3ncnn3c2)n1"
(A) 6.00 to 7.00

(Q) Another compound: "Cc1cccc(-c2nc(CNC3CCC3)[nH]c2-c2ccc3ncnn3c2)n1"
(A) 6.00 to 7.00

###

- Tested on: TGFβ/SMAD Signaling Pathway SBE reporter cell line
- assay-explanation: TGFb reporter assay in HEK293 SBE-LUC reporter cells (luciferase)
- Type: cell-based
- settings: Homo sapiens, key of the table says IC50, read-out: EC50 (the source's name)
recorded-endpoint: IC50

(Q) I have this compound here, COc1cccc(CNCc2nc(-c3cccc(C)n3)c(-c3ccc4ncnn4c3)[nH]2)c1 [Compound 7] , and I need its recorded IC50.
(A) 0.1 to 10 nM

(Q) Another: CCc1ccccc1CNCc1nc(-c2cccc(C)n2)c(-c2ccc3ncnn3c2)[nH]1 [Compound 22]
(A) 0.1 to 10 nM

(Q) Try Cc1cccc(-c2nc(CNCCN(C)c3ccccc3)[nH]c2-c2ccc3nccnc3c2)n1 [Compound 88] next.
(A) 0.1 to 10 nM

(Q) For Cc1cccc(-c2nc(CNCc3ccccc3)[nH]c2-c2ccccn2)n1 [Compound 75] then?
(A) 100 to 1000 nM

(Q) Param item: Cc1cccc(-c2nc(CN3CCc4ccccc4C3)[nH]c2-c2ccn3ncnc3c2)n1 [Compound 1.40]
(A) 100 to 1000 nM

(Q) // query: Cc1cccc(-c2nc(CN[C@@H]3CCc4ccccc43)[nH]c2-c2ccn3ncnc3c2)n1 [Compound 1.30]
(A) 10 to 100 nM

(Q) Same thing, different compound: Cc1cccc(-c2nc(CNC3CCc4ccccc43)[nH]c2-c2ccc3ncnn3c2)n1 (centres unmarked) [Compound 1.26]
(A) 10 to 100 nM

(Q) Repeat for the following compound: Cc1cccc(-c2nc(CNCCc3ccccc3F)[nH]c2-c2ccc3ncnn3c2)n1 [Compound 59]
(A) 0.1 to 10 nM

###

- experimental-system: ALK5 (Homo sapiens)
- Construct: purchased Reaction Biology Corp (Malvern, Pa.)
- Sequence (P36897 34-503): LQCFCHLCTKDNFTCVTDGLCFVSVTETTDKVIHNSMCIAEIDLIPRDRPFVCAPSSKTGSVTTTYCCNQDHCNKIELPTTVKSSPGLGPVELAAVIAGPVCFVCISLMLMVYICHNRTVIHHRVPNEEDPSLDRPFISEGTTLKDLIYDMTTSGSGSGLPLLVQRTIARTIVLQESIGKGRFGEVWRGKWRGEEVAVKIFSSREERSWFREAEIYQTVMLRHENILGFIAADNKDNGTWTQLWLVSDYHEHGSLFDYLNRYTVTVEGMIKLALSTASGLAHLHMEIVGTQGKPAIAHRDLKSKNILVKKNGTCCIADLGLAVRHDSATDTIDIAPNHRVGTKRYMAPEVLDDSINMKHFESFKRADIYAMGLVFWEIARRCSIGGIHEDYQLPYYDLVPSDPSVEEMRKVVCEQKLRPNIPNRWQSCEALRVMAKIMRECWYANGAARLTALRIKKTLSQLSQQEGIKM
- assay-explanation: ALK5 enzyme inhibition assay (casein substrate, 10 uM ATP, 33P-ATP, filter-binding; Reaction Biology Corp)
- Assay type: biochemical
- settings: Table 12
Provide the reported IC50 of each item.

(Q) Identify the measured IC50 of Cc1cccc(-c2nc(CNc3cccc4c3C(N)CC4)[nH]c2-c2ccc3ncnn3c2)n1 (centres unmarked) for ALK5 (Homo sapiens).
(A) 100 to 1000 nM

(Q) Please answer likewise for "Cc1cccc(-c2nc(CNC34CC(C3)C4)[nH]c2-c2ccc3ncnn3c2)n1"
(A) 1000 to 10000 nM

(Q) How about "Cc1cccc(-c2nc(CN[C@H]3CCCC[C@@H]3F)[nH]c2-c2ccn3ncnc3c2)n1" ?
(A) 10 to 100 nM

(Q) Please answer likewise for Cc1cccc(-c2nc(C3CCN(C(=O)OC(C)(C)C)C3)[nH]c2-c2ccc3ncnn3c2)n1 (centres unmarked)
(A) 1000 to 10000 nM

(Q) Likewise for "Cc1cccc(-c2nc(CN[C@@H]3CCc4ccccc43)[nH]c2-c2ccn3ncnc3c2)n1" ?
(A) 100 to 1000 nM

(Q) And for "Cc1cccc(-c2nc(CN[C@H]3CCCC[C@H]3F)[nH]c2-c2ccn3ncnc3c2)n1" ?
(A) 100 to 1000 nM

(Q) Next: Cc1cccc(-c2nc(CNc3cccc4c3CC(N)C4)[nH]c2-c2ccc3ncnn3c2)n1 (centres unmarked)
(A) 1000 to 10000 nM

(Q) Another molecule: CC(=O)NC1Cc2cccc(NCc3nc(-c4cccc(C)n4)c(-c4ccc5ncnn5c4)[nH]3)c2C1 (centres unmarked)
(A) 10 to 100 nM

###

- Test system: TGFβ/SMAD Signaling Pathway SBE reporter cell line
- assay-explanation: TGFb reporter assay in HEK293 SBE-LUC reporter cells (luciferase)
- Assay type: cell-based
- settings: Homo sapiens, key of the table says IC50, read-out: EC50 (the source's name)
Field: IC50. Provide a value for each of the molecules that follow.

(Q) TGFβ/SMAD Signaling Pathway SBE reporter cell line / IC50 / "Cc1cccc(-c2nc(CN[C@H]3c4ccccc4C[C@H]3O)[nH]c2-c2ccc3ncnn3c2)n1" : value?
(A) 10 to 100 nM

(Q) # iterate: "Cc1cccc(-c2nc(CNCc3ccc(Cl)c(Cl)c3)[nH]c2-c2ccc3ncnn3c2)n1"
(A) 100 to 1000 nM

(Q) What do we get for "Cc1cccc(-c2nc(CNCc3cccc(-c4ccccc4)c3C)[nH]c2-c2ccc3ncnn3c2)n1" ?
(A) 10 to 100 nM

(Q) Also need "Cc1cccc(-c2nc(CNCc3cccc(Cl)c3C)[nH]c2-c2ccc3ncnn3c2)n1" , thanks.
(A) 0.1 to 10 nM

(Q) Another: "Cc1cccc(-c2nc(C34CCC(N)(CC3)CC4)[nH]c2-c2ccc3ncnn3c2)n1"
(A) 1000 to 10000 nM

(Q) Query "Cc1cccc(-c2nc(CNCc3ccccc3-c3ccccc3)[nH]c2-c2ccnc3ccccc23)n1" next
(A) 100 to 1000 nM

(Q) What about this molecule? "Cc1cccc(-c2nc(CNCc3ccccc3C)[nH]c2-c2ccc3ncnn3c2)n1"
(A) 0.1 to 10 nM

(Q) Same for "Cc1cccc(-c2nc(CNCc3ccccc3-c3ccncc3)[nH]c2-c2ccc3ncnn3c2)n1"
(A) 10 to 100 nM

(Q) Try this molecule next: "Cc1cccc(-c2nc(CNCc3ccccc3)[nH]c2-c2ccc3nccnc3c2)n1"
(A) 0.1 to 10 nM

(Q) Ok, now "Cc1cccc(-c2nc(CN[C@H]3CCc4ccccc43)[nH]c2-c2ccn3ncnc3c2)n1"
(A) 100 to 1000 nM

(Q) Also "Cc1cccc(-c2nc(CNCc3ccccc3-c3ccccn3)[nH]c2-c2ccc3ncnn3c2)n1" , if possible.
(A) 10 to 100 nM

(Q) And then "Cc1cccc(-c2nc(CNCc3ccccc3)[nH]c2-c2ccc3ncnn3c2)n1" , what is it?
(A) 0.1 to 10 nM

(Q) Can you handle "Cc1cccc(-c2nc(CNCCc3ccc(F)cc3)[nH]c2-c2ccc3ncnn3c2)n1" next?
(A) 0.1 to 10 nM

(Q) Can you handle "Cc1cccc(-c2nc(CNc3ccc4c(c3)CCNC4)[nH]c2-c2ccc3ncnn3c2)n1" next?
(A) 100 to 1000 nM

(Q) Then what about the molecule "Cc1cccc(-c2nc(CNc3ccc4c(c3)CNCC4)[nH]c2-c2ccc3ncnn3c2)n1" ?
(A) 100 to 1000 nM

(Q) // same read-out, input: "Cc1cccc(-c2nc(CNCc3ccccc3C3CCCC3)[nH]c2-c2ccc3ncnn3c2)n1"
(A) 10 to 100 nM
